# TARGET_UNDER_TEST: human OX1R (Homo sapiens, UniProt O43613)
# Construct: expressed in transfected cells; host or cells: CHO (Chinese hamster ovary) cells, line CHOOX1R, co-expressing NFAT-luciferase
# Sequence (O43613 1-425): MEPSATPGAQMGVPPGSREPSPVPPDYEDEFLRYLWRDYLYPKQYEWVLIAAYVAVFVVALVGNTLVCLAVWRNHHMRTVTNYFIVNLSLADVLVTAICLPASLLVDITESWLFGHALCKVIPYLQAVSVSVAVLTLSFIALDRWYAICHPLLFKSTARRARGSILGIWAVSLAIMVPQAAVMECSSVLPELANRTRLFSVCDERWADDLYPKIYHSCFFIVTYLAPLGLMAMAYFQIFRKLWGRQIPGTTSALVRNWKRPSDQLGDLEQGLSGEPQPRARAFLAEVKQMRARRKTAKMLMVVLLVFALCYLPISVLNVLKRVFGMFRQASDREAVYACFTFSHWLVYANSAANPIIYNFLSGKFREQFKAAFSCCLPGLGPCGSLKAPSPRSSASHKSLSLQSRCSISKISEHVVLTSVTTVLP
# EXPERIMENT_NOTES: Agonist activity against OX1R: intracellular calcium (Fura-2AM, FDSS7000) in CHOOX1R cells
# Assay type: cell-based
# STATED_CONDITIONS: 10 μM test compound; relative to orexin-A as full agonist (100%)
ASSAY_ENDPOINT: Response (%) OX1R
Report the figure in % without appending any unit label.

The cases that follow already have their Response (%) OX1R on record.
Request: Response (%) OX1R, test system human OX1R (Homo sapiens, UniProt O43613), entry "COc1cccc(NC(=O)Nc2cccc(NS(=O)(=O)c3cc(-c4cccc(C(=O)N(C)C)c4)ccc3OC)c2)c1" 10

Field entry: "COc1ccccc1CNc1cccc(NS(=O)(=O)c2cc(-c3cccc(C(=O)N(C)C)c3)ccc2OC)c1" 12

Field entry: "COc1ccc(-c2cccc(C(=O)N(C)C)c2)cc1S(=O)(=O)Nc1cccc(NC(=N)Nc2cccc(C)c2)c1" 14

Next:
Request: Response (%) OX1R, test system human OX1R (Homo sapiens, UniProt O43613), entry "COc1ccc(CNc2cccc(NS(=O)(=O)c3cc(-c4cccc(C(=O)N(C)C)c4)ccc3OC)c2)cc1" 82

Field entry: "COc1ccc(-c2cccc(C(=O)N(C)C)c2)cc1S(=O)(=O)Nc1cccc(NC(=O)c2ccccc2C)c1" 10

Field entry: "COc1ccc(-c2cccc(C(=O)N(C)C)c2)cc1S(=O)(=O)Nc1cccc(NC(=O)Nc2ccccc2C)c1" 67

Field entry: "COc1ccc(Nc2cccc(NS(=O)(=O)c3cc(-c4cccc(C(=O)N(C)C)c4)ccc3OC)c2)cc1OC" 50

Field entry: "COc1ccc(-c2cccc(C(=O)N(C)C)c2)cc1S(=O)(=O)Nc1cccc(NC(=O)c2ccc3c(c2)OCO3)c1" 7

Field entry: "COc1ccc(-c2cccc(C(=O)N(C)C)c2)cc1S(=O)(=O)Nc1cccc(NC(=O)NCc2ccccc2)c1" 7

Field entry: "COc1ccc(-c2cccc(C(=O)N(C)C)c2)cc1S(=O)(=O)Nc1cccc(NC(=O)c2ccccc2N(C)C)c1" 6
